# assay target: Metabotropic glutamate receptor 7 (Rattus norvegicus, UniProt P35400)
# Sequence (P35400 whole entry): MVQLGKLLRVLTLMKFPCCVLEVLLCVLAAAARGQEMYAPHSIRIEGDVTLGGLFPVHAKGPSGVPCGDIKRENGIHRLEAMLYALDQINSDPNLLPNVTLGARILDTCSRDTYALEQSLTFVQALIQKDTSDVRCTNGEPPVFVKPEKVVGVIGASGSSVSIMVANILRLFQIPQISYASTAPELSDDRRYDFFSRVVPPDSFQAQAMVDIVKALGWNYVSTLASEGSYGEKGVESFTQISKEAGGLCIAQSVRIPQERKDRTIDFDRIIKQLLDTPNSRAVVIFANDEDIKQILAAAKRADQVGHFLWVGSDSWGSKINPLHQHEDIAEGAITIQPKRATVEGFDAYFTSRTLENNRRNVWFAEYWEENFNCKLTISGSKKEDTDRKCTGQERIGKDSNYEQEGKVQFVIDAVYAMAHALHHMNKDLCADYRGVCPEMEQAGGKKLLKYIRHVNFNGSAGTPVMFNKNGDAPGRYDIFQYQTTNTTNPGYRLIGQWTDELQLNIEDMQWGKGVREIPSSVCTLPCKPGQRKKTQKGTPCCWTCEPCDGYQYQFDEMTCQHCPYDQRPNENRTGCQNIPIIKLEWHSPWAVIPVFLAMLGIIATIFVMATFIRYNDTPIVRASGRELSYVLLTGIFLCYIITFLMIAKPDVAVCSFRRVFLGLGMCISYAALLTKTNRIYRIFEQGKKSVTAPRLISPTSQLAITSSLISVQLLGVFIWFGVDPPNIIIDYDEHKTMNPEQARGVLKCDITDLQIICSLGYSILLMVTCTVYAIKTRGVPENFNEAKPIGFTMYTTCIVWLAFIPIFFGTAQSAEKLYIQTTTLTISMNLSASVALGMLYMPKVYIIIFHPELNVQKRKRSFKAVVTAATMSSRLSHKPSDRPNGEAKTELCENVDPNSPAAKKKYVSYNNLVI
# protocol notes: Negative allosteric modulation of rat mGlu7 in HEK cells expressing Galpha15 assessed as inhibition of L-AP4-induced response measured by calcium mobilization assay
readout type: IC50 (nM)
One number for each entry, in nM.

> print(dat)
                        structure.as.smiles  readout.type  unit.label  quantitative.result
1  COc1ccc(-c2noc(-c3cc(Cl)cc(F)c3-n3cncn3)n2)c(F)c1OC          IC50          nM                 1000

// batch mode: one IC50 value per listed entry
1. CCOC(=O)c1cnc2c(OC)cccc2c1-c1ccc(-c2cc(F)cnc2OC)nc1
2. COc1ccc(-c2nnc(-c3cc(OC(F)(F)F)ccc3-n3cncn3)o2)cc1OC

Reply text:
[2400, 2000]

// batch mode: one IC50 value per listed entry
1. COc1cc(C(=O)Nc2cc(OC(F)(F)F)ccc2-n2cncn2)ccc1OC1CCC1
2. COc1cc(OCC(=O)Nc2cc(OC(F)(F)F)ccc2-n2cncn2)ccc1OC1COC1
3. COc1ccc(-c2nnc(-c3cc(OC(F)(F)F)ccc3-c3cn[nH]c3)o2)cc1OC

Reply text:
[1000, 263, 2000]

====

# assay target: Metabotropic glutamate receptor 7 (Homo sapiens, UniProt Q14831)
# Sequence (Q14831 whole entry): as the sequence (P35400 whole entry) above, with G5R, V27A, H454N, T488S, S520A, N578D counted along it
Labelling field: enter 1 if recorded IC50 is less than 3 µM. Enter 0 if it equals or exceeds that cut-off.

> print(dat)
                        structure.as.smiles                              assay.target  classification
1  COc1cc(OCC(=O)Nc2cc(OC(F)(F)F)ccc2-n2cncn2)ccc1OC1COC1  Metabotropic glutamate receptor 7 (Homo sapiens, UniProt Q14831)               1
2  COc1ccc(-c2nnc(-c3cc(OC(F)(F)F)ccc3-n3cncn3)o2)cc1OC  Metabotropic glutamate receptor 7 (Homo sapiens, UniProt Q14831)               1
3  COc1cc(C(=O)Nc2cc(OC(F)(F)F)ccc2-n2cncn2)ccc1OC1CCC1  Metabotropic glutamate receptor 7 (Homo sapiens, UniProt Q14831)               0
4  CCOC(=O)c1cnc2c(OC)cccc2c1-c1ccc(-c2cc(F)cnc2OC)nc1  Metabotropic glutamate receptor 7 (Homo sapiens, UniProt Q14831)               0

Let us examine a further case.
Inquiry: # strict comparison: is reported IC50 < 3 µM? input = COc1ccc(-c2nnc(-c3cc(OC(F)(F)F)ccc3-c3cn[nH]c3)o2)cc1OC
Reply text: 0

====

# protocol notes: Ratio of drug level in brain to plasma in rat
# Format: ADME, cell-free
Can you tell me Kp for the items I'm about to list?
Answers are plain numbers.

> print(dat)
                        structure.as.smiles  quantitative.result
1  COc1ccc(-c2nnc(-c3cc(OC(F)(F)F)ccc3-n3ccnc3)o2)cc1OC                  4.9

Now look at this entry.
Inquiry: Entry under review: COc1cc(C(=O)Nc2cc(OC(F)(F)F)ccc2-n2cncn2)ccc1OCC1CC1 . Reported Kp?
Reply text: 2.4

====

Emin tested on Metabotropic glutamate receptor 7 (Homo sapiens): recorded values
One number for each entry, in %.

Here are 3 molecules together with their reported answers.
> print(dat)
                        structure.as.smiles  readout.type  unit.label  quantitative.result
1  CCOC(=O)c1cnc2c(OC)cccc2c1-c1ccc(-c2cc(F)cnc2OC)nc1          Emin           %                 22.4
2  COc1ccc(-c2nnc(-c3cc(OC(F)(F)F)ccc3-c3cn[nH]c3)o2)cc1OC          Emin           %                   26
3  COc1cc(C(=O)Nc2cc(OC(F)(F)F)ccc2-n2cncn2)ccc1OC1CCC1          Emin           %                   19

// batch mode: one Emin value per listed entry
1. COc1cc(OCC(=O)Nc2cc(OC(F)(F)F)ccc2-n2cncn2)ccc1OC1COC1
2. COc1ccc(-c2nnc(-c3cc(OC(F)(F)F)ccc3-n3ccnc3)o2)cc1OC

Reply text:
1: 21.1; 2: 0

====

# assay target: Metabotropic glutamate receptor 7 (Homo sapiens)
# protocol conditions: filed as negative allosteric modulator
readout type: Emin
// unit must come after the numeric part

> print(dat)
                        structure.as.smiles                              assay.target  result
1  COc1ccc(-c2noc(-c3cc(Cl)cc(F)c3-n3cncn3)n2)c(F)c1OC  Metabotropic glutamate receptor 7 (Homo sapiens)     69%
2  COc1ccc(-c2noc(-c3cc(Cl)c(F)cc3-n3cncn3)n2)cc1OC  Metabotropic glutamate receptor 7 (Homo sapiens)     74%
3  COc1ccc(-c2noc(-c3cc(Cl)ccc3-n3cncn3)n2)c(F)c1OC  Metabotropic glutamate receptor 7 (Homo sapiens)     59%
4  COc1ccc(-c2nnc(-c3cc(OC(F)(F)F)ccc3-n3cncn3)o2)cc1OC  Metabotropic glutamate receptor 7 (Homo sapiens)     60%

Now look at this entry.
Inquiry: What is its Emin for Metabotropic glutamate receptor 7 (Homo sapiens)? Entry: COc1ccc(-c2coc(-c3cc(OC(F)(F)F)ccc3-n3cncn3)n2)cc1OC
Reply text: 45%

====

# protocol notes: Drug concentration in rat brain assessed as unbound fraction
# Assay type: ADME, tissue-based
readout type: fraction unbound
Numbers only.

Inquiry: Entry under review: COc1ccc(-c2nnc(-c3cc(Cl)ccc3-c3ccnn3C)o2)cc1OC . Reported fraction unbound?
Reply text: 0.009

====

# assay target: Metabotropic glutamate receptor 7 (Rattus norvegicus, UniProt P35400)
# protocol notes: Negative allosteric modulation of rat mGlu7 in HEK cells expressing Galpha15 assessed as inhibition of L-AP4-induced response measured by calcium mobilization assay
Can you tell me IC50 for the items I'm about to list?

Here are 2 compounds together with their reported answers.
> print(dat)
                        structure.as.smiles  readout.type   result
1  COc1ccc(-c2noc(-c3cc(Cl)ccc3-n3cncn3)n2)c(F)c1OC          IC50  > 30 µM
2  COc1ccc(-c2noc(-c3cc(Cl)c(F)cc3-n3cncn3)n2)cc1OC          IC50  > 30 µM

Inquiry: Entry under review: COc1ccc(-c2coc(-c3cc(OC(F)(F)F)ccc3-n3cncn3)n2)cc1OC . Reported IC50?
Reply text: > 10 µM
